Target: T1, Avi/His-HuIL18BPa (recombinant human IL-18BP isoform A with Avi and poly-His tags) (human, biotinylated with BirA on the Avi tag in some assays)
T1 chain: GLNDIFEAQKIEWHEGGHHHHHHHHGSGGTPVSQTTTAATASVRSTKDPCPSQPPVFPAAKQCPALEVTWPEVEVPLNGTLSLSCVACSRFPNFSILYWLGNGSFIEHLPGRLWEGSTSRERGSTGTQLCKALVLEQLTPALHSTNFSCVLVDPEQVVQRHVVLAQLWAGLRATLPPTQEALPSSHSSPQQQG
Assay: cell-based or functional assay

Binder: anti-IL18BP antibody BP-08 (antibody, human IgG1, V domains shown) VH: QVQLQQPGAELVKPGASVKLSCKVSGYTFTSYWMHWVKQRPGQGLEWIGMIDPNSDSSRYNEKFKNRATLTADKSSSTAFMQFSSLTSEDSAVYYCARSRLGQDYWGQGTTLTVSS VL: DIVMTQSHKFMSTSVGDRVSITCKASQDVSTAVAWYQQKPGQSPKLLIYWASTRHTGVPDRFTGSESGTDYTLIISSVQAEDLALYYCQQHFSTPYTFGGGTKLEIK
Unit Descriptor: nM
EC50 of IFNγ release, human PBMC: 2.01
//
Binder: anti-IL18BP antibody BP-06 (antibody, human IgG1, V domains shown) VH: QIQLQQSGPELVKPGASVKISCKASGYTFTDYYLNWVKQTPGQGLEWIGWIYPGSGNTKYTEKFKDKASLTVDTSSNTAYMQLSSLTSDDTAVYFCARRGVAWFAYWGQGTLVTVSA VL: DIKMTQSPSSIYASLGERVTITCKASQDINSYLSWFQQKPGKSPKTLIHRANRLVDGVPSRFSGSGSGQDYSLTISSLEYEDMGIYYCLQHDDFPPTFGAGTNLELK
Unit Descriptor: nM
EC50 of IFNγ release, human PBMC: 1.23
//
Binder: anti-IL18BP antibody BP-07 (antibody, human IgG1, V domains shown) VH: EVQLQQSGPELVKPGASVKISCRASGFTITDYNMDWVRQSHGKSLEWIGNINLNNGGSIYNQKFKGKATLTIDKSSSTAYMELRSLTSEDTAVYYCARSDTTVVASRYYAMDYWGQGTSVTVSS VL: DIVLTQSPASLAMSLGKRATISCRASESVSIIGTNLIHWYQQKPGQPPKLLIYHASNLETGVPVRFSGSGSRTDFTLTIDPVEEDDVAIYYCLQSRKIPPTFGGGTKLEIK
Unit Descriptor: nM
EC50 of IFNγ release, human PBMC: 1.66
